Item-by-item account of Dmax
target: Cbl-b (Homo sapiens); construct: Cbl-b-HiBit KI Jurkat Cells were purchased from Promega; host or cells: Cbl-b-HiBiT knock-in Jurkat cells; assay: Cbl-b Degradation Method A (FACS, anti-Cbl-b antibody staining); assay type: cell-based; details: Jurkat, Cbl-b-HiBit KI Jurkat Cells, incubated at least 20 hours; maximum degradation observed; read-out: Cbl-b Degredation Method A Dmax (%)
Sequence (Q13191 whole entry): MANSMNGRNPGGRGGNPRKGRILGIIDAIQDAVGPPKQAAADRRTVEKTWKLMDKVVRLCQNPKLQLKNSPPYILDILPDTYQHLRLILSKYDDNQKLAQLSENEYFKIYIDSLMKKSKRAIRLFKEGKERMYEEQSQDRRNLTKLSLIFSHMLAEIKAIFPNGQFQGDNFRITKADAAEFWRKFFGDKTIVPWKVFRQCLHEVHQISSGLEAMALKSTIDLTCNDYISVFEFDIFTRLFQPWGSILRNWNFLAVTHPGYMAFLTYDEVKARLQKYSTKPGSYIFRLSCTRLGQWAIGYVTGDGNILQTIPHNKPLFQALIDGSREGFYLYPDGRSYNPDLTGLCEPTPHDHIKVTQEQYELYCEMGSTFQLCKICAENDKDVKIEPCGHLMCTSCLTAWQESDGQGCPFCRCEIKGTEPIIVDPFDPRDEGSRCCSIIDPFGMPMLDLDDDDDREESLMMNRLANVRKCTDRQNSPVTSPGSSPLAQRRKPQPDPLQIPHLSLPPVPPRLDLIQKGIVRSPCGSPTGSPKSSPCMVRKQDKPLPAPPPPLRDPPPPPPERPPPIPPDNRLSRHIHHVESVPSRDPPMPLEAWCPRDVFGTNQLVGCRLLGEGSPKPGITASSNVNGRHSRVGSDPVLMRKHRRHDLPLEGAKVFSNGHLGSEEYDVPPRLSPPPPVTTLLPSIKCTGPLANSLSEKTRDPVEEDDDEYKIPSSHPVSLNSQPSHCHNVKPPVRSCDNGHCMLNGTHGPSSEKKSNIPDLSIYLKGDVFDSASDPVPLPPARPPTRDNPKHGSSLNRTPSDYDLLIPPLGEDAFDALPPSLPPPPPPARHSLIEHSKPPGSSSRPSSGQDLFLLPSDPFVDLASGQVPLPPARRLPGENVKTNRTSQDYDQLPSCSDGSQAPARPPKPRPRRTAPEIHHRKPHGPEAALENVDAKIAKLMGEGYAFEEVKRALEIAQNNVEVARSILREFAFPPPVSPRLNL

- molecule: "C[C@@H]1c2nc(N3CCC(O[C@H]4CC[C@H](CN5CCN(Cc6cc7c(c(C(F)(F)F)c6)CN(c6cccc(C8(Cc9nncn9C)CC(C#N)C8)c6)C7=O)C6(CC6)C5)CC4)CC3)ccc2C(=O)N1C1CCC(=O)NC1=O (single isomer, unassigned)"
  Dmax: "35 to 70%"
- molecule: "Cn1cnnc1C[C@]1(c2cccc(N3Cc4c(cc(CN5CCN(C[C@H]6CC[C@H](OC7CCN(c8ccc9c(n8)n(C)c(=O)n9C8CCC(=O)NC8=O)CC7)CC6)CC5(C)C)cc4C(F)(F)F)C3=O)c2)C[C@H](C#N)C1 (some centres unmarked)"
  Dmax: "35 to 70%"
- molecule: "Cc1cc(N2CCC(O[C@H]3CC[C@H](CN4CCN(Cc5cc6c(c(C(F)(F)F)c5)CN(c5cccc([C@]7(Cc8nncn8C)C[C@@H](C#N)C7)c5)C6=O)CC4)CC3)CC2)c(F)c2c1C(=O)N(C1CCC(=O)NC1=O)C2 (some centres unmarked)"
  Dmax: "35 to 70%"
- molecule: "C[C@H]1C[C@@H](CN2CCC(CC3CCN(c4ccc5c(c4)C(=O)N(C4CCC(=O)NC4=O)C5=O)CC3)CC2)CN(Cc2cc3c(c(C(F)(F)F)c2)CN(c2cccc(C4(Cc5nncn5C)COC4)c2)C3=O)C1 (some centres unmarked)"
  Dmax: "35 to 70%"
- molecule: "Cn1cnnc1CC1(c2cccc(N3Cc4c(cc(N5CC6(CCN(CC7CCN(c8ccc9c(c8Cl)CN(C8CCC(=O)NC8=O)C9=O)CC7)CC6)C5)cc4C(F)(F)F)C3=O)c2)COC1 (centres unmarked)"
  Dmax: "35 to 70%"
- molecule: "Cn1cnnc1CC1(c2cccc(N3Cc4c(cc(CN5CCC[C@@H](CN6CCN(C[C@H]7CC[C@H](OC8CCN(c9ccc%10c(c9F)CN(C9CCC(=O)NC9=O)C%10=O)CC8)CC7)CC6(C)C)C5)cc4C(F)(F)F)C3=O)c2)COC1 (some centres unmarked)"
  Dmax: "35 to 70%"
- molecule: "CC1CN(C[C@H]2CC[C@H](OC3CCN(c4ccc5c(n4)C(C)N(C4CCC(=O)NC4=O)C5=O)CC3)CC2)CCN1Cc1cc2c(c(C(F)(F)F)c1)CN(c1cccc(C3(Cc4nncn4C)CC3)c1)C2=O (some centres unmarked)"
  Dmax: "35 to 70%"
- molecule: "CC1c2nc(N3CCC(O[C@H]4CC[C@H](CN5CCN(Cc6cc7c(c(C(F)(F)F)c6)CN(c6cccc(C8(Cc9nncn9C)CC8)c6)C7=O)CC5)CC4)CC3)ccc2C(=O)N1C1CCC(=O)NC1=O (mixture of isomers)"
  Dmax: "35 to 70%"
- molecule: "CC(C)n1c(=O)n(C2CCC(=O)NC2=O)c2cccc(N3CCC(O[C@H]4CC[C@H](CN5CCN(Cc6cc7c(c(C(F)(F)F)c6)CN(c6cccc([C@]8(Cc9nncn9C)C[C@@H](C#N)C8)c6)C7=O)CC[C@H]5C)CC4)CC3)c21 (some centres unmarked)"
  Dmax: "35 to 70%"
- molecule: "COc1c(N2CCC(O[C@H]3CC[C@@H](CN4CCN(C[C@H]5CCCN(Cc6cc7c(c(C(F)(F)F)c6)CN(c6cccc(C8(Cc9nncn9C)COC8)c6)C7=O)C5)CC4)CC3)CC2)ccc2c1CN(C1CCC(=O)NC1=O)C2=O (some centres unmarked)"
  Dmax: "> 70%"
- molecule: "CC(C)n1c(=O)n(C2CCC(=O)NC2=O)c2cccc(N3CCC(O[C@H]4CC[C@H](CN5CCN(Cc6cc7c(c(C(F)(F)F)c6)CN(c6cccc([C@]8(Cc9nncn9C)C[C@H](C#N)C8)c6)C7=O)CC[C@@H]5C)CC4)CC3)c21 (some centres unmarked)"
  Dmax: "35 to 70%"
- molecule: "CC1CN(C[C@H]2CC[C@@H](OC3CCN(c4ccc5c(c4F)CN(C4CCC(=O)NC4=O)C5=O)CC3)CC2)CCN1C[C@H]1CCCN(Cc2cc3c(c(C(F)(F)F)c2)CN(c2cccc(C4(Cc5nncn5C)COC4)c2)C3=O)C1 (some centres unmarked)"
  Dmax: "> 70%"
- molecule: "Cn1cnnc1CC1(c2cccc(N3Cc4c(cc(CN5CCC(N6CCN(CC7CCN(c8ccc9c(c8)C(=O)N(C8CCC(=O)NC8=O)C9=O)CC7)CC6)CC5)cc4C(F)(F)F)C3=O)c2)COC1 (centres unmarked)"
  Dmax: "35 to 70%"
- molecule: "CC1CC(CN2CCC(CC3CCN(c4ccc5c(c4)C(=O)N(C4CCC(=O)NC4=O)C5=O)CC3)CC2)CN(Cc2cc3c(c(C(F)(F)F)c2)CN(c2cccc(C4(Cc5nncn5C)COC4)c2)C3=O)C1 (centres unmarked)"
  Dmax: "35 to 70%"
- molecule: "Cn1cnnc1CC1(c2cccc(N3Cc4c(cc(CN5CCN(C[C@H]6CC[C@H](OC7CCN(c8cccc9c8n(C8CC8)c(=O)n9C8CCC(=O)NC8=O)CC7)CC6)CC5(C)C)cc4C(F)(F)F)C3=O)c2)CC(C#N)C1 (some centres unmarked)"
  Dmax: "35 to 70%"
- molecule: "CC1c2nc(N3CCC(OC4CCC(CN5CCN(Cc6cc7c(c(C(F)(F)F)c6)CN(c6cccc(C8(Cc9nncn9C)COC8)c6)C7=O)C[C@H]5C)CC4)CC3)ccc2C(=O)N1C1CCC(=O)NC1=O (some centres unmarked)"
  Dmax: "35 to 70%"
- molecule: "Cn1cnnc1C[C@]1(c2cccc(N3Cc4c(cc(N5CC6(CCN(CC7CCN(c8ccc9c(c8Cl)CN(C8CCC(=O)NC8=O)C9=O)CC7)CC6)C5)cc4C(F)(F)F)C3=O)c2)C[C@H](C#N)C1 (some centres unmarked)"
  Dmax: "> 70%"
